Protocol description: Maximum plasma concentration for the compound in suspension form (formulation) was determined in rats at peroral dose of 5 mg/kg
Type: ADME, organism-based
Set-up: dose 5 mg/kg, route oral
Experimental context: rat, po
Property: Cmax (µM)
Give the number; µM is assumed, so skip it.

State the recorded Cmax for this entry: O=c1c2c(oc(O)c1C(c1ccccc1)C1CC1)CCCCCC2 (stereo unspecified) 30.3

---

Listing of entries alongside the reported inhibition.
Tested on: HIV-1 protease (Human immunodeficiency virus 1)
Protocol description: Inhibition against HIV protease at 1 uM

Known inhibition results, listed for orientation:
molecule="O=c1c2c(oc(O)c1C(c1ccccc1)C1CC1)CCCC2 (configuration not stated)" result=62%
molecule="O=c1c2c(oc(O)c1C(c1ccccc1)C1CC1)CCC2 (configuration not stated)" result=40%
molecule="O=c1c2c(oc(O)c1C(c1ccccc1)C1CC1)CCCCCC2 (configuration not stated)" result=95%
molecule="O=c1c2c(oc(O)c1C(c1ccccc1)C1CC1)CCCCCCCC2 (configuration not stated)" result=23%
molecule="O=c1c2c(oc(O)c1C(c1ccccc1)C1CC1)CCCCC2 (configuration not stated)" result=70%

Request - read-out inhibition | tested on HIV-1 protease (Human immunodeficiency virus 1) | molecule O=c1c2c(oc(O)c1C(c1ccccc1)C1CC1)CCCCCCC2 (configuration not stated) 94%

How about O=c1c2c(oc(O)c1C(c1ccccc1)C1CC1)CCCCCCCCCC2 (configuration not stated) ? < 10%
